# targetOrTestSystem: biotinylated CD59 (Homo sapiens, UniProt P13987)
# Construct: Recombinant soluble human CD59 with an additional C-terminal cysteine residue
# Sequence (P13987 26-102 limits assumed): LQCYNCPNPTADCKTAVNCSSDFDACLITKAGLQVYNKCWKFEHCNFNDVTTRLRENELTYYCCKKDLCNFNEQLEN
# assayOverview: mRNA-display cyclic peptide screen against CD59-biotin, NGS abundance after 6th selection round
# testParameters: counts normalised by total counts of sample Seq II; percentage of the pool, sheet R6
# Excerpt: To discover novel non‐protein CD59 ligands, we screened a library of 10^12 cyclic peptides against CD59 using mRNA‐display (Figure 2a).^[ [23], [24], [25], [26], [27], [28], [29] ^] Briefly, an mRNA library was designed in which the start codon was reprogrammed from Met to N‐chloroacetyl‐D‐Tyr (ClAc‐D‐Tyr), followed by 10–12 randomly encoded natural amino acids, a Cys residue, a (GlySer)3 linker, and a stop codon. […]
Form field: Percentage Seq II (one value per entry).
readout: Percentage Seq II (%)

In [3]: df
Out[3]:
    sequencerecord                        targetortestsystem            readout  readoutunit  measured
 0     IAFGSRFHSYQ  biotinylated CD59 (Homo sapiens, UniProt P13987)  Percentage Seq II            %     0.647
 1     YIYWSFTSARG  biotinylated CD59 (Homo sapiens, UniProt P13987)  Percentage Seq II            %     0.032
 2     FVTGNRNHTRG  biotinylated CD59 (Homo sapiens, UniProt P13987)  Percentage Seq II            %     0.028
 3    TFAHRVGSCQST  biotinylated CD59 (Homo sapiens, UniProt P13987)  Percentage Seq II            %     0.026
 4      CEALLRRGWD  biotinylated CD59 (Homo sapiens, UniProt P13987)  Percentage Seq II            %     0.079
 5     FVTGNRDHARG  biotinylated CD59 (Homo sapiens, UniProt P13987)  Percentage Seq II            %     0.035
 6     CIRGTPTTVWG  biotinylated CD59 (Homo sapiens, UniProt P13987)  Percentage Seq II            %     0.362
 7     CFRYRLGLTST  biotinylated CD59 (Homo sapiens, UniProt P13987)  Percentage Seq II            %     0.058
 8      CYGNSHASWG  biotinylated CD59 (Homo sapiens, UniProt P13987)  Percentage Seq II            %     0.469
 9     CFSQRLDRTSS  biotinylated CD59 (Homo sapiens, UniProt P13987)  Percentage Seq II            %     0.026
10     FVRGDLYSVLG  biotinylated CD59 (Homo sapiens, UniProt P13987)  Percentage Seq II            %     4.911
11     SARGNRQIQYY  biotinylated CD59 (Homo sapiens, UniProt P13987)  Percentage Seq II            %     0.028
12    CFSARATLDGGW  biotinylated CD59 (Homo sapiens, UniProt P13987)  Percentage Seq II            %     0.030
13     SAWGNQQIQYY  biotinylated CD59 (Homo sapiens, UniProt P13987)  Percentage Seq II            %     0.026
14    TFRKRLTATCGT  biotinylated CD59 (Homo sapiens, UniProt P13987)  Percentage Seq II            %     0.028
15     WILGSRWWTQS  biotinylated CD59 (Homo sapiens, UniProt P13987)  Percentage Seq II            %     0.903
16    RYGGRTFIYAWS  biotinylated CD59 (Homo sapiens, UniProt P13987)  Percentage Seq II            %     0.026
17     VARGNSNTVWG  biotinylated CD59 (Homo sapiens, UniProt P13987)  Percentage Seq II            %     0.021
18     FVRGDRYSVLG  biotinylated CD59 (Homo sapiens, UniProt P13987)  Percentage Seq II            %     0.039
19    LLGTRDYVRLWH  biotinylated CD59 (Homo sapiens, UniProt P13987)  Percentage Seq II            %     0.139
